# measured.target: CDK7/Cyclin H/MAT1 complex (Homo sapiens)
# Sequence (P50613 whole entry): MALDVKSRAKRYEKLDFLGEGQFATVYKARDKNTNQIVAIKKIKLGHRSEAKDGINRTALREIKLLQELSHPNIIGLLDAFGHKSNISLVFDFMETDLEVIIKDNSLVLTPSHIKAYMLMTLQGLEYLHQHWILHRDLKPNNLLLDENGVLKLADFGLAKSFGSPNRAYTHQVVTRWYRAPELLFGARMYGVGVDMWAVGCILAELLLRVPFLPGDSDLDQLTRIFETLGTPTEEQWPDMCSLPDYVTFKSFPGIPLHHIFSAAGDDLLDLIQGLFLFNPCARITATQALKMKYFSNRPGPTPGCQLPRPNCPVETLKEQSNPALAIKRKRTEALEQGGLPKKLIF
# Sequence (P51946 whole entry partner): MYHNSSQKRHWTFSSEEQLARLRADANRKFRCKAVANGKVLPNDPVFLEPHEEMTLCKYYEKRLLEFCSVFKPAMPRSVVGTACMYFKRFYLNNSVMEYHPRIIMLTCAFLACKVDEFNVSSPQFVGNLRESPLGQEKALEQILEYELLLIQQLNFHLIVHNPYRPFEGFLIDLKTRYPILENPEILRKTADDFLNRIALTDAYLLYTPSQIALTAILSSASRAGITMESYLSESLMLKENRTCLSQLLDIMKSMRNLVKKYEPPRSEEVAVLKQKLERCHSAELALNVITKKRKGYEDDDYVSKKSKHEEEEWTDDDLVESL
# Sequence (P51948 whole entry partner): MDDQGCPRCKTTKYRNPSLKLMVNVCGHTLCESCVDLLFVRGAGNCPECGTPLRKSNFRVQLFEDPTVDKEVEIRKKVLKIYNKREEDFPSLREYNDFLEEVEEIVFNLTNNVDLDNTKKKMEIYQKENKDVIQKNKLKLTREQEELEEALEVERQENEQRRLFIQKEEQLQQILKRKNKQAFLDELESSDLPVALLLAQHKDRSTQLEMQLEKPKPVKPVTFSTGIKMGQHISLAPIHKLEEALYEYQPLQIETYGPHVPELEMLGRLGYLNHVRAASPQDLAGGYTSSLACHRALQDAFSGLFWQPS
# protocol.notes: CDK7 kinase inhibition assay (Caliper/LabChip EZ Reader)
# details: CDK7/Cyclin H/MAT1 6 nM, ATP 2 mM, 35 min at 27° C.
Examples of molecules with documented IC50 follow.

molecule	IC50
Nc1ncc2cccc(-c3ccc4c(-c5nc(NC6CCCNC6)ncc5C(F)(F)F)c[nH]c4c3)c2n1 (centres unmarked)	< 0.02 µM
CC(C)(O)Cn1cc(-c2ccc3c(-c4nc(N[C@H]5CCCNC5)ncc4C(F)(F)F)c[nH]c3c2)cn1	0.02 to 0.2 µM
O=S(=O)(c1ccc2c(-c3nc(NC4CCCNC4)ncc3C(F)(F)F)c[nH]c2c1)C(F)F (centres unmarked)	< 0.02 µM
CC1(C)CCNC[C@H]1Nc1ncc(C(F)(F)F)c(-c2c[nH]c3ccccc23)n1	0.2 to 5 µM
Clc1cnc(NC2CCCNC2)nc1-c1cnn2ccccc12 (centres unmarked)	0.02 to 0.2 µM
CCc1cnc(NC2CCCNC2)nc1-c1c[nH]c2c(S(=O)(=O)C(C)C)cccc12 (centres unmarked)	0.02 to 0.2 µM
CC(=O)NCc1cccc(-c2ccc3c(-c4nc(NC5CCCNC5)ncc4C(F)(F)F)c[nH]c3c2)c1 (centres unmarked)	0.02 to 0.2 µM
N#Cc1ccc2c(-c3nc(NC4CCCNC4)ncc3OC(F)F)c[nH]c2c1 (centres unmarked)	0.02 to 0.2 µM
